Listed molecules paired with reported IC50
biological target: mutant B-RAF (Homo sapiens, UniProt P15056, V600E); construct: purchased Upstate (Charlottesville, Va.); test: RAF biochemical assay (MEK-1 phosphorylation, anti-phospho MEK1/2 detection); conditions: read-out: Mutant B-RAF IC50
Sequence (P15056 whole entry V600E): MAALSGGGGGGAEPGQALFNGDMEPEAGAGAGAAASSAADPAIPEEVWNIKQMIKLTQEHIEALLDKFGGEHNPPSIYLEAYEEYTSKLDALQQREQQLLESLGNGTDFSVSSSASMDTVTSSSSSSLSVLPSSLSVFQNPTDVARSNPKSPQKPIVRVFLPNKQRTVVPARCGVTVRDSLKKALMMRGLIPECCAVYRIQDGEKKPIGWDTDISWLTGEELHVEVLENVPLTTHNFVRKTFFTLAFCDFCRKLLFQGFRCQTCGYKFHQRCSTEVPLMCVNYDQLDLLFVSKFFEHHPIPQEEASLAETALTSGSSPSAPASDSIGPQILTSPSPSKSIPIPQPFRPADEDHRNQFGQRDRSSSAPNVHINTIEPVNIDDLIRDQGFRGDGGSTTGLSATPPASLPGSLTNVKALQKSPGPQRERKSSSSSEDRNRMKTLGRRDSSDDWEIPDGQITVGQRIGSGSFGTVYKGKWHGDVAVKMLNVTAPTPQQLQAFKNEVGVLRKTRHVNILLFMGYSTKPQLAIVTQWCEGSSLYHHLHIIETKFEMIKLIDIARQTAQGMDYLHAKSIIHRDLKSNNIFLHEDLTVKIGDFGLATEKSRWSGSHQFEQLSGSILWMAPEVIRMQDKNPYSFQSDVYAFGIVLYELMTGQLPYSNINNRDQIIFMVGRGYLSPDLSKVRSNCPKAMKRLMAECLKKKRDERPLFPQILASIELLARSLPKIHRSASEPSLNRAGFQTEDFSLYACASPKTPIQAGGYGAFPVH
experimental-readout: IC50 (µM)

• O=C(NCCc1ccc(F)cc1)N1CCC(Nc2nccc(-c3c(-c4ccc(F)cc4)nc4occn34)n2)CC1 = 1.28
• O=S(=O)(c1ccc(F)cc1)N1CCC(Nc2nccc(-c3c(-c4ccc(F)cc4)nc4occn34)n2)CC1 = 0.675
• O=C(NCC1CCCCC1)N1CCC(Nc2nccc(-c3c(-c4ccc(F)cc4)nc4occn34)n2)CC1 = 3.61
• O=C(COc1ccc(Cl)cc1)N1CCC[C@@H](Nc2nccc(-c3c(-c4ccc(F)cc4)nc4occn34)n2)C1 = 1.82
• CC(C)NC(=O)N1CCC(Nc2nccc(-c3c(-c4cccc(O)c4)nc4sccn34)n2)CC1 = 0.94
• O=[N+]([O-])c1ccccc1-c1nc2sccn2c1-c1ccnc(NC2CCN(S(=O)(=O)c3ccc(Cl)cc3)CC2)n1 = 0.722

---

target: mutant B-RAF (Homo sapiens, UniProt P15056, V600E); construct: purchased Upstate (Charlottesville, Va.); test: RAF biochemical assay (MEK-1 phosphorylation, anti-phospho MEK1/2 detection); details: read-out: Mutant B-RAF IC50
Listed molecules paired with reported log10 IC50
experimental-readout: log10 IC50 (log10 of the value in nM)

- O=C(NC1CCCCC1)N1CCC(Nc2nccc(-c3c(-c4ccc(F)cc4)nc4occn34)n2)CC1 [Example 167]: 3.67
- Cc1ccc(S(=O)(=O)N2CCC(Nc3nccc(-c4c(-c5ccc(F)cc5)nc5occn45)n3)CC2)cc1 [Example 198]: 2.34
- O=S(=O)(c1ccc(OC(F)(F)F)cc1)N1CCC(Nc2nccc(-c3c(-c4ccc(F)cc4)nc4occn34)n2)CC1 [Example 203]: 2.72
- COc1cccc(-c2nc3sccn3c2-c2ccnc(N[C@@H]3CCCN(S(=O)(=O)c4ccc(F)cc4)C3)n2)c1 [Example 82]: 2.28
- Cc1cn2c(-c3ccnc(NC4CCN(S(=O)(=O)c5ccc(Cl)cc5)CC4)n3)c(-c3ccc(F)cc3)nc2s1 [Example 257]: 1.86
- NS(=O)(=O)Oc1cccc(-c2nc3sccn3c2-c2ccnc(N[C@@H]3CCCN(S(=O)(=O)c4ccc(Cl)cc4)C3)n2)c1 [Example 377]: 1.93
- O=C(NS(=O)(=O)c1ccc(Cl)cc1)N1CCC(Nc2nccc(-c3c(-c4cccc(O)c4)nc4sccn34)n2)CC1 [Example 336]: 3.02
- O=S(=O)(c1ccc(F)cc1)N1CCC[C@@H](Nc2nccc(-c3c(-c4ccc(F)c(F)c4)nc4sccn34)n2)C1 [Example 85]: 1.76
- O=C(NC1CCCC1)N1CCC(Nc2nccc(-c3c(-c4cccc(O)c4)nc4sccn34)n2)CC1 [Example 356]: 3.40
- O=S(=O)(c1ccc(Cl)cc1)N1CCC[C@@H](Nc2nccc(-c3c(-c4ccc(CO)cc4)nc4sccn34)n2)C1 [Example 378]: 3.35
- O=C(C1CCCCC1)N1CCC[C@@H](Nc2nccc(-c3c(-c4ccc(F)cc4)nc4occn34)n2)C1 [Example 31]: 3.47
- O=S(=O)(c1cccs1)N1CCC[C@@H](Nc2nccc(-c3c(-c4cccc(O)c4)nc4occn34)n2)C1 [Example 388]: 0.95
- O=S(=O)(c1ccc(Cl)cc1)N1CCC[C@@H](Nc2nccc(-c3c(-c4cccc(CO)c4)nc4sccn34)n2)C1 [Example 396]: 3.20
- CCCCNC(=O)N1CCC(Nc2nccc(-c3c(-c4ccc(F)cc4)nc4occn34)n2)CC1 [Example 168]: 3.05
- COc1cccc(-c2nc3sccn3c2-c2ccnc(N[C@@H]3CCCN(S(=O)(=O)c4ccc(C(=O)O)cc4)C3)n2)c1 [Example 119]: 1.96
- COc1ccc(C(=O)N2CCC(Nc3nccc(-c4c(-c5ccc(F)cc5)nc5occn45)n3)CC2)cc1 [Example 158]: 2.67
- NCC(=O)Nc1ccccc1-c1nc2sccn2c1-c1ccnc(N[C@@H]2CCCN(S(=O)(=O)c3ccc(Cl)cc3)C2)n1 [Example 141]: 2.91
- CS(=O)(=O)Nc1cccc(-c2nc3sccn3c2-c2ccnc(N[C@@H]3CCCN(S(=O)(=O)c4ccc(Cl)cc4)C3)n2)c1 [Example 346]: 2.94
- CCOC(=O)c1ccc(-c2nc3sccn3c2-c2ccnc(N[C@@H]3CCCN(S(=O)(=O)c4ccc(Cl)cc4)C3)n2)cc1 [Example 361]: 3.51
- CNC(=O)N1CCC(Nc2nccc(-c3c(-c4cccc(O)c4)nc4sccn34)n2)CC1 [Example 352]: 2.83
- COc1cccc(-c2nc3sccn3c2-c2ccnc(N[C@@H]3CCCN(S(C)(=O)=O)C3)n2)c1 [Example 151]: 2.93
- COc1ccccc1-c1nc2sccn2c1-c1ccnc(N[C@@H]2CCCNC2)n1 [Example 102]: 3.11
- O=S(=O)(c1cccc(O)c1)N1CCC[C@@H](Nc2nccc(-c3c(-c4cccc(O)c4)nc4sccn34)n2)C1 [Example 143]: 1.28

---

molecular target: mutant B-RAF (Homo sapiens, UniProt P15056, V600E); construct: purchased Upstate (Charlottesville, Va.); assay: RAF biochemical assay (MEK-1 phosphorylation, anti-phospho MEK1/2 detection); settings: read-out: Mutant B-RAF IC50
pIC50: −log10 of the molar value.
Listed compounds paired with reported pIC50
experimental-readout: pIC50

- CCNC(=O)N1CCC(Nc2nccc(-c3c(-c4ccc(F)c(F)c4)nc4sccn34)n2)CC1: 5.91
- O=S(=O)(c1cccc(C(F)(F)F)c1)N1CCC(Nc2nccc(-c3c(-c4ccc(F)cc4)nc4occn34)n2)CC1: 6.08
- O=C(c1ccc(F)cc1)N1CCC[C@@H](Nc2nccc(-c3c(-c4cccc(O)c4)nc4sccn34)n2)C1: 5.42

---

molecular target: mutant B-RAF (Homo sapiens, UniProt P15056, V600E); construct: purchased Upstate (Charlottesville, Va.); assay: RAF biochemical assay (MEK-1 phosphorylation, anti-phospho MEK1/2 detection); details: @ 10 uM; read-out: Mutant B-RAF % inhibition
Listed molecules paired with reported inhibition at 10 µM
experimental-readout: inhibition at 10 µM (%)

* O=S(=O)(c1cc(Cl)cc(Cl)c1)N1CCC[C@@H](Nc2nccc(-c3c(-c4ccc(F)cc4)nc4occn34)n2)C1 | 25
* N#Cc1cccc(-c2nc3sccn3c2-c2ccnc(NC3CCNCC3)n2)c1 | 58
* Cc1cn2c(-c3ccnc(N[C@@H]4CCCN(C(=O)NCc5ccco5)C4)n3)c(-c3ccc(F)cc3)nc2s1 | 61
* FC(F)(F)c1cccc(-c2nc3occn3c2-c2ccnc(NC3CCNCC3)n2)c1 | 32

---

target: mutant B-RAF (Homo sapiens, UniProt P15056, V600E); construct: purchased Upstate (Charlottesville, Va.); assay: RAF biochemical assay (MEK-1 phosphorylation, anti-phospho MEK1/2 detection); details: read-out: Mutant B-RAF IC50
pIC50: −log10 of the molar value.
Listed molecules paired with reported pIC50
experimental-readout: pIC50

* O=C(O)c1cccc(-c2nc3sccn3c2-c2ccnc(N[C@@H]3CCCN(S(=O)(=O)c4ccc(Cl)cc4)C3)n2)c1 | 5.92
* CCNC(=O)N1CCC(Nc2nccc(-c3c(-c4ccc(F)cc4)nc4occn34)n2)CC1 | 6.37
* O=C(O)CCc1ccc(S(=O)(=O)N2CCC[C@@H](Nc3nccc(-c4c(-c5ccc(F)cc5)nc5occn45)n3)C2)cc1 | 6.36
* O=C(C1CCNCC1)N1CCC(Nc2nccc(-c3c(-c4ccc(F)cc4)nc4occn34)n2)CC1 | 5.88
* COc1ccc(S(=O)(=O)N2CCC(Nc3nccc(-c4c(-c5ccc(F)cc5)nc5occn45)n3)CC2)cc1 | 6.94
* CCOc1ccc(NC(=O)N2CCC[C@@H](Nc3nccc(-c4c(-c5cccc(OC)c5)nc5sccn45)n3)C2)cc1 | 5.40
* COc1cccc(-c2nc3occn3c2-c2ccnc(NC3CCN(C(=O)NS(=O)(=O)c4ccc(Cl)cc4)CC3)n2)c1 | 5.40
* O=S(=O)(c1cccs1)N1CCC[C@@H](Nc2nccc(-c3c(-c4cccc(O)c4)nc4sccn34)n2)C1 | 8.52
* O=S(=O)(c1ccc(F)cc1)N1CCC(Nc2nccc(-c3c(-c4ccc5c(c4)OCCO5)nc4sccn34)n2)CC1 | 6.73
* O=C(NCCc1ccccc1)N1CCC(Nc2nccc(-c3c(-c4ccc(F)cc4)nc4occn34)n2)CC1 | 6.58
* CC(C)c1ccc(S(=O)(=O)N2CCC(Nc3nccc(-c4c(-c5ccc(F)cc5)nc5occn45)n3)CC2)cc1 | 6.38
* O=S(=O)(c1ccc(F)c(Cl)c1)N1CCC(Nc2nccc(-c3c(-c4ccc(F)cc4)nc4occn34)n2)CC1 | 6.27
* COc1cc(-c2nc3sccn3c2-c2ccnc(N[C@@H]3CCCN(S(=O)(=O)c4ccc(Cl)cc4)C3)n2)ccc1F | 6.98
* O=S(=O)(c1cc(C(F)(F)F)cc(C(F)(F)F)c1)N1CCC(Nc2nccc(-c3c(-c4ccc(F)cc4)nc4occn34)n2)CC1 | 7.57
* O=C(OC[C@H](O)CO)c1ccc(S(=O)(=O)N2CCC[C@@H](Nc3nccc(-c4c(-c5cccc(O)c5)nc5sccn45)n3)C2)cc1 | 7.48
* CC(=O)c1cccc(-c2nc3sccn3c2-c2ccnc(N[C@@H]3CCCN(S(=O)(=O)c4ccc(Cl)cc4)C3)n2)c1 | 5.89
* CC(=O)Nc1cccc(-c2nc3sccn3c2-c2ccnc(N[C@@H]3CCCN(S(=O)(=O)c4ccc(Cl)cc4)C3)n2)c1 | 6.67
* O=S(=O)(c1ccc(Cl)cc1)N1CCC[C@@H](Nc2nccc(-c3c(-c4ccccc4O)nc4sccn34)n2)C1 | 7.48
* O=C(Nc1ccc(O)cc1)N1CCC[C@@H](Nc2nccc(-c3c(-c4cccc(O)c4)nc4sccn34)n2)C1 | 5.84
* COc1cccc(-c2nc3sccn3c2-c2ccnc(NC3CCN(C(=O)Cc4ccc(N(C)C)cc4)CC3)n2)c1 | 5.61
* NC(=O)c1cccc(-c2nc3sccn3c2-c2ccnc(N[C@@H]3CCCN(S(=O)(=O)c4ccc(Cl)cc4)C3)n2)c1 | 6.85
* N#Cc1cccc(-c2nc3sccn3c2-c2ccnc(N[C@@H]3CCCN(S(=O)(=O)c4ccc(Cl)cc4)C3)n2)c1 | 6.15
* Fc1ccc(-c2nc3sccn3c2-c2ccnc(N[C@@H]3CCNC3)n2)cc1 | 7.36

Data credit: patent US7501430B2
